Molecular target: hLTBP3-proTGFβ1 in the cell-based potency assay (human, UniProt P01137 30-390; Q9NS15 44-1303)
Sequence (P01137 30-390 limits assumed, chain 1 of 2): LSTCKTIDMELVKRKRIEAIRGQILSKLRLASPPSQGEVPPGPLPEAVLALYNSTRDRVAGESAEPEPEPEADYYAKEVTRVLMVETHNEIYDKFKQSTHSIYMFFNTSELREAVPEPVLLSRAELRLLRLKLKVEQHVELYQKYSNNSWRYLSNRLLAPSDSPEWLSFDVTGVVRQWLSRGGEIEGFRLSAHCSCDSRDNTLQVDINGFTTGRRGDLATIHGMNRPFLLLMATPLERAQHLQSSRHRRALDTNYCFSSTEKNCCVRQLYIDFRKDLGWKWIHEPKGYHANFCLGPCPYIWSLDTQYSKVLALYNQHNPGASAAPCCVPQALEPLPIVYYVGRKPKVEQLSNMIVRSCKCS
Sequence (Q9NS15 44-1303 limits assumed, chain 2 of 2): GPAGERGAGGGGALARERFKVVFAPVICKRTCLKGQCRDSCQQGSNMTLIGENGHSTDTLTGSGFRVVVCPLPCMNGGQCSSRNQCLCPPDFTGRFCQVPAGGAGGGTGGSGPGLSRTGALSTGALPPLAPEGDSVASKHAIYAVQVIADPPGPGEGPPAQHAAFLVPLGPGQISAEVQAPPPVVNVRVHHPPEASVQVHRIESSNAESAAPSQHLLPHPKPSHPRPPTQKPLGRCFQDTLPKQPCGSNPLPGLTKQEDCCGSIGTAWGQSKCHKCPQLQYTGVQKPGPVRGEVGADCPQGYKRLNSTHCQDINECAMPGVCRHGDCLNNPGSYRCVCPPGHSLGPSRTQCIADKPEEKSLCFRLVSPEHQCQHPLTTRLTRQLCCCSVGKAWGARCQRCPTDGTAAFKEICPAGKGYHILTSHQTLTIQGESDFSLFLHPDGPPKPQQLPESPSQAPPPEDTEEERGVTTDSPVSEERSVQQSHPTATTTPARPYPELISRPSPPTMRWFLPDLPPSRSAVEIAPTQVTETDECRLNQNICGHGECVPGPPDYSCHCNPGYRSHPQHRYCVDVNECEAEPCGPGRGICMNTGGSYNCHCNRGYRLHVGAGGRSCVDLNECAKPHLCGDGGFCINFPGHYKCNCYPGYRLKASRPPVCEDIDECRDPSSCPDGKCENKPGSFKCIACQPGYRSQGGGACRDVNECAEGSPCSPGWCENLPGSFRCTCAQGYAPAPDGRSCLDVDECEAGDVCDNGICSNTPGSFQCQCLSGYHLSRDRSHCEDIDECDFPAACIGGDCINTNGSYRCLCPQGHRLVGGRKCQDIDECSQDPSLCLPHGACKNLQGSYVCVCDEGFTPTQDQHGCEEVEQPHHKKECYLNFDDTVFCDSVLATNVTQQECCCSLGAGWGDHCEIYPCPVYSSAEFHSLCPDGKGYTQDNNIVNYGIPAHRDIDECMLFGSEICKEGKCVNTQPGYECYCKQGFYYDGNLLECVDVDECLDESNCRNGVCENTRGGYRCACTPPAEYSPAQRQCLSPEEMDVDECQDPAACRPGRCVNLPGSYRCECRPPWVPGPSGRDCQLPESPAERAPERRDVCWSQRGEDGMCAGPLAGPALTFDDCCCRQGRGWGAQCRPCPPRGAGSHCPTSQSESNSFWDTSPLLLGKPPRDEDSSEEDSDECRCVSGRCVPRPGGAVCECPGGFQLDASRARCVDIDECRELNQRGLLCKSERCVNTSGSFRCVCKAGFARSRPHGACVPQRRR
Assay: cell-based or functional assay
recordedEndpoint: IC50, reporter cell assay of TGFβ1 activation (nM)
Form entry: value (nM) — number only.

What the record says about Ab21 (antibody, V domains shown) VH: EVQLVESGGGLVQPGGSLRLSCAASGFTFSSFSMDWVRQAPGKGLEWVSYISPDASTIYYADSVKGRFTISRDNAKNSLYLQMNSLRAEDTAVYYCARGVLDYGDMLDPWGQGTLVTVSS VL: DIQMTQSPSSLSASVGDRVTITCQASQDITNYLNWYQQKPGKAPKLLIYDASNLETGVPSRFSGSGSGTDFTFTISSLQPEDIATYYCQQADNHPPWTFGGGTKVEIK : IC50, reporter cell assay of TGFβ1 activation is 0.8

What the record says about Ab26 (antibody, V domains shown) VH: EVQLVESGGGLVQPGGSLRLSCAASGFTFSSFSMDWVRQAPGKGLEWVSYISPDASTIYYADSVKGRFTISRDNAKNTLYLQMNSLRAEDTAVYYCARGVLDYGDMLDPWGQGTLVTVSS VL: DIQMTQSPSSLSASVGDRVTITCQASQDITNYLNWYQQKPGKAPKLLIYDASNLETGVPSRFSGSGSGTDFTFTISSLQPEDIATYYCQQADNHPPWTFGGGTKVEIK : IC50, reporter cell assay of TGFβ1 activation is 0.7

What the record says about Ab33 (antibody, V domains shown) VH: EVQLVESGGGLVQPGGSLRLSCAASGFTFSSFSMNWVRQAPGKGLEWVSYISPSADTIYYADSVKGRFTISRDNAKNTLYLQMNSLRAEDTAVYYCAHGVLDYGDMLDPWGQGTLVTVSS VL: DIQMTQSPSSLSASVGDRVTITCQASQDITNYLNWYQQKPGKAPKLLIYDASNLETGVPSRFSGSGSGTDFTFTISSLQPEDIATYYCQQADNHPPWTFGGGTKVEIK : IC50, reporter cell assay of TGFβ1 activation is 1.1

What the record says about Ab23 (antibody, V domains shown) VH: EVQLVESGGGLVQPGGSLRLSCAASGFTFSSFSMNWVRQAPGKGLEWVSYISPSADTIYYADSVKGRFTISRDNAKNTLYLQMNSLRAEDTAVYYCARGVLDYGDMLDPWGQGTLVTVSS VL: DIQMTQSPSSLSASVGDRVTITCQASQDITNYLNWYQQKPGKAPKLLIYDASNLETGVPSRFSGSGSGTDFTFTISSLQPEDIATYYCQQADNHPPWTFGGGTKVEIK : IC50, reporter cell assay of TGFβ1 activation is 0.9
